meta.source: paper PMC5540273

tested on: BUB1; details: concentration: 1 μM, replicates: in singlicate; n = 1;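 also: KINOMEscan kinase panel screen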
// boundary case: %Inh equal to 10% maps to F; strictly smaller maps to T

- Compound: "O=c1cc(N2CCOCC2)nc2n(Cc3cccc4ccccc34)ccn12"
  Assigned class: "F"
- Compound: "Fc1ccc(-c2ncn(CCCN3CCOCC3)c2-c2cccnc2)cc1"
  Assigned class: "T"
- Compound: "c1ccc(-c2cc(-c3c[nH]nc3-c3ccccn3)ccn2)cc1"
  Assigned class: "F"
- Compound: "CCc1ccnc(/C=C/c2n[nH]c3cc(Sc4ccccc4C(=O)NC)ccc23)c1"
  Assigned class: "F"
- Compound: "COc1ccc(Nc2nccc(N3CCC(NC(=O)Nc4cccc(C(C)=O)c4)C3)n2)cc1 (stereo not shown)"
  Assigned class: "T"
- Compound: "COc1cc2c(cc1OC[C@@H](O)CO)ncc1c3ccc(C#N)cc3[nH]c21"
  Assigned class: "F"
- Compound: "Cc1cn2c(=O)cc(N3CCOCC3)nc2n1Cc1cccc(Cl)c1Cl"
  Assigned class: "T"
- Compound: "O=C(c1ccc(-c2cc(-c3c[nH]nc3-c3ccccn3)ccn2)cc1)N1CCOCC1"
  Assigned class: "F"
- Compound: "CC(C)Oc1ccc2c(-c3ccnc(Nc4ccc(N5CCN(C)CC5)cc4)n3)cnn2n1"
  Assigned class: "F"
- Compound: "COc1ccc(COc2cc(-n3cnc4ccccc43)sc2C(N)=O)cc1"
  Assigned class: "T"
- Compound: "O=C(NCCCN1CCOCC1)c1cccc(Nc2nccc(Nc3ccc(Oc4ccccc4)cc3)n2)c1"
  Assigned class: "F"
- Compound: "Fc1ccc(-c2ncn(CCCN3CCOCC3)c2-c2ccccn2)cc1"
  Assigned class: "T"
- Compound: "O=c1cc(N2CCOCC2)nc2n(Cc3cccc(C(F)(F)F)c3)ccn12"
  Assigned class: "F"
- Compound: "O=C(Nc1cccc(-c2nn3ncccc3c2-c2ccnc(Nc3cccc(C(F)(F)F)c3)n2)c1)c1c(F)cccc1F"
  Assigned class: "F"
- Compound: "Cc1cccc(Cn2ccn3c(=O)cc(N4CCOCC4)nc23)c1"
  Assigned class: "F"
- Compound: "CCn1cnc2c(N)ncnc21"
  Assigned class: "T"
- Compound: "CSc1ccc(-c2cc3ncnc(SCC(=O)O)c3s2)cc1"
  Assigned class: "F"
- Compound: "COc1ccc(Nc2nccc(N3CCC(NC(=O)Nc4cc(C)ccc4C)C3)n2)cc1 (stereo not shown)"
  Assigned class: "F"
- Compound: "Cc1nnc(-c2ccc3occ(-c4ccc(C(C)O)cc4)c3c2)o1 (stereo not shown)"
  Assigned class: "T"
